The measurements presented in this section are drawn from PubChem BioAssay (NCI).

# Tested on: RXF-631 renal
# EXPERIMENTAL PROTOCOL: NCI tumour cell line growth inhibition, 48 h
ASSAY READOUT: TGI

Please look at the items below and tell me TGI for each one, in order.
1. CC(=O)N1[C@H](C(=O)O)CS[C@H]1c1ccc(F)cc1
2. CC(=O)Nc1ccc(C2CC(c3ccc([N+](=O)[O-])cc3)=Nc3ccccc3S2)cc1 (centres undefined)
3. COC(=O)C1CC(c2ccc(OC)c(OC)c2)OC1=O (mixture of isomers)
4. CCOc1ccc2nc(NC(=O)C(=O)C(C(=O)c3ccccc3F)C3OC(=O)c4ccccc43)sc2c1 (centres undefined)

1. > 100 µM
2. 70 µM
3. > 100 µM
4. 70.1 µM

----------
# System: 786-0 renal
# EXPERIMENTAL PROTOCOL: NCI tumour cell line growth inhibition, 48 h
ASSAY READOUT: TGI

Here's what some known entries look like.
Which TGI is listed for "O=C1NC(=NCCc2ccc(Cl)cc2)S/C1=C\c1ccc2ncccc2c1" ?
> 25 µM

Subsequent entry: "O=C1/C(=C/c2ccccc2)Oc2cc(O)ccc21"
> 100 µM

Please look at the items below and tell me TGI for each one, in order.
1. Cc1cccc(C2NC(=O)c3ccccc3N2)c1 (stereo unspecified)
2. Cc1cccc(N2C(=O)/C(=C/C(Cl)=C/c3ccc([N+](=O)[O-])cc3)SC2=S)c1C

> 100 µM
4.68 µM

Please look at the items below and tell me TGI for each one, in order.
1. CCC1(O)CC(CCN(Cc2ccccc2)C(=O)OCc2ccccc2)C(OCc2ccccc2)C1O (stereo unspecified)
2. Cc1nnc2n1N=C(c1ccccc1)C(c1ccccc1)S2 (stereo unspecified)

1. 39.3 µM
2. > 100 µM

----------
Please respond with reported TGI for every item in the list.
# System: OVCAR-3 ovarian
# EXPERIMENTAL PROTOCOL: NCI tumour cell line growth inhibition, 48 h

Which TGI is listed for "CN1CCN(C2=NC(=O)/C(=C\c3ccc(N(C)C)cc3)S2)CC1" ?
> 100 µM

Please look at the items below and tell me TGI for each one, in order.
1. CCc1nc(N)c2nc(-c3cccs3)oc2n1
2. O=[N+]([O-])c1ccc(-n2nc3ccc4nonc4c3n2)cc1
3. O=C(Nc1ccccc1)N1CCN(C(=O)Nc2ccccc2)C1=S
4. O=c1c2cc(Br)cc(Br)c2[nH]c(=S)n1-c1ccc(N=Nc2ccc(O)c3cccnc23)cc1
5. COC1(CC[C@@H](C)COC2OC(CO)C(O)C(O)C2O)OC2C[C@H]3[C@@H]4CC[C@H]5C[C@@H](OC6OC(CO)C(OC7OC(CO)C(O)C(O)C7O)C(O)C6OC6OC(C)C(O)C(O)C6O)[C@H](O)C[C@]5(C)[C@H]4CC[C@]3(C)C2[C@@H]1C (stereo not given in full)
6. O=S(=O)(Nc1nc2ccccc2nc1N1CCCCCC1)c1ccccc1
7. C/C(=C1\N=C(c2ccccc2)OC1=O)c1ccccc1

> 100 µM
> 100 µM
> 100 µM
28.5 µM
3.3 µM
36.5 µM
> 100 µM

Please look at the items below and tell me TGI for each one, in order.
1. COC(=O)c1c2c(cc3c1CC1(Cc4cc5c(c(C=O)c4C1)CCC5)C3)CCC2 (stereo not given)
2. Cc1cc(Cl)ccc1NC(=O)CCCC(=O)C1C/C(=N/O)CC/C1=N\O (stereo not given)
3. COC1=CC(c2ccc[nH]2)=N/C1=C\c1[nH]c(C)c(C(=O)CCCCCCCCC(=O)O[C@H]2CC[C@H]3C4CCc5cc(O)ccc5C4CC[C@]23C)c1C (stereo not given in full)
4. O=c1c2cccnc2ncn1CCCN1CCCCC1
5. CC1CCC2C(C)C(=O)OC2C2(C)C(=O)C=CC12 (stereo not given)
6. COC(=O)C1CC(c2ccc(OC)c(OC)c2)OC1=O (mixture of isomers)
7. Cn1c(COC(=O)NCCn2ccnc2)nc2c(N3CCOCC3)nc(-c3ccccc3)nc21
8. CN(C)C(=S)/N=c1\ss/c(=N\C(=S)N(C)C)n1-c1cccc(Cl)c1

["99.2 µM", "> 100 µM", "15 µM", "> 100 µM", "> 10 µM", "> 100 µM", "0.367 µM", "> 100 µM"]

Please look at the items below and tell me TGI for each one, in order.
1. Cc1c(C)c([N+](=O)[O-])c2c(c1N)C(=O)c1ccccc1C2=O
2. COc1c2ccoc2nc2c(OC)c(OCC(O)C(C)(C)O)ccc12 (stereo not given)
3. Nc1c(C(=O)c2ccc(Cl)c(Cl)c2)[nH]c(NCc2ccccc2)c1C(=S)Nc1ccccc1

1: > 100 µM; 2: > 100 µM; 3: 38.5 µM

Which TGI is listed for "Oc1ccc(Cl)cc1C=Nc1cnc2ccccc2c1" ?
> 59.8 µM
